Taken from ChEMBL document CHEMBL1140145.

System: Vaccinia virus
Test Summary: Antiviral activity against Vaccinia virus WR in BSC1 cells assessed as protection from virus-induced lysis of cell monolayer after 20 hrs
Type: functional, organism-based
Measurement Conditions: Orthopoxvirus vaccinia, BSC-1, 20 h
Reported Property: EC50 (µM)
Answers are plain numbers, in µM.

Here are 5 molecules together with their reported answers.
1. CN1CCN(c2cc(-c3ccc(F)cc3)nc(-c3ccccc3)n2)CC1 : 12
2. Cc1cc(/N=C/c2cc(Cl)cc(Cl)c2O)no1 : 95
3. OCC(O)Cn1c2ccc(Br)cc2c2cc(Br)ccc21 (stereo not given) : 23
4. CCC/N=c1\cc(-c2ccccc2)oc2ccc(C)cc12 : 57
5. COC(=O)c1c(NC(=O)c2ccc(OC)cc2)sc2c1CCN(C(C)C)C2 : 40

For every item in the list below, what is its measured EC50?
1. Cc1c(/N=C/c2cc(Br)cc(Br)c2O)cccc1C(=O)O
2. CCn1c2ccccc2c2ccc(/C=N/n3cnnc3)cc21

**A:**
1. 100
2. 50

For every item in the list below, what is its measured EC50?
1. CCNc1nc(SCc2ccc(Cl)cc2)nc2sc3c(c12)CCN(C)C3
2. CCN1CCCC1CNC(=O)c1cc2c(=O)n(C)c3ccccc3c2n1C (stereo not given)
3. O=C1/C(=C/C2CCCO2)CC/C1=C\C1CCCO1 (stereo not given)
4. CCOC(=O)c1c(NC(=O)/C=C/C(=O)O)sc(C)c1-c1ccccc1

**A:**
1: 45; 2: 98; 3: 100; 4: 30

* * *

Test Summary: Cytotoxicity against african green monkey BSC1 cells after 120 hrs WST-1 based assay
Format: cell-based, BSC-1
Measurement Conditions: chlorocebus aethiops, read-out: TC50
Reported Property: log10 of CC50 at 120 h (log10 of the value in µM)
Kindly note that the scale is log10 and the underlying CC50 at 120 h is in µM.

Here are 3 compounds together with their reported answers.
1) CCC/N=c1\cc(-c2ccccc2)oc2ccc(C)cc12 : 1.00
2) CCn1c2ccccc2c2ccc(/C=N/n3cnnc3)cc21 : 0.48
3) O=C1/C(=C/C2CCCO2)CC/C1=C\C1CCCO1 (configuration not stated) : 1.70

For every item in the list below, what is its measured log10 of CC50 at 120 h?
1. Cc1csc2c(N3CCN(C(=O)NC(C)(C)C)CC3)ncnc12
2. CC(=O)n1c2ccccc2c2nc(C)sc21
3. O=C(O)Cn1c2ccc(Cl)cc2c2nc3ccccc3nc21

**A:**
1. 1.60
2. 1.88
3. 1.48

For every item in the list below, what is its measured log10 of CC50 at 120 h?
1. Nc1ccn(C[C@@H](CO)OCP(=O)(O)O)c(=O)n1 [CIDOFOVIR]
2. Cc1ccc2c(Sc3ccc(Cl)cc3)c(C(=O)O)[nH]c2c1
3. Cc1ccc2oc(-c3ccccc3)c/c(=N\CCO)c2c1
4. O=C(Nc1ccccc1C(=O)O)OCC1c2ccccc2-c2ccccc21
5. Cc1cc(/N=C/c2cc(Cl)cc(Cl)c2O)no1

**A:**
[2.48, 2.08, 1.08, 1.30, 1.30]

* * *

Please provide measured CC50 at 20 h for the entries that follow.
Test Summary: Cytotoxicity against african green monkey BSC1 cells after 20 hrs WST-1 based assay
Assay type: cell-based, BSC-1
Measurement Conditions: chlorocebus aethiops, read-out: TC50
One number for each entry, in µM.

Here are 2 molecules together with their reported answers.
1) Cc1ccc2oc(=O)c3cc(C(=O)NCCN4CCCCC4C)sc3c2c1 (configuration not stated) : 147
2) CN(C)CCNC(=O)c1cc2c(s1)-c1ccc(Cl)cc1SC2 : 3.9

For every item in the list below, what is its measured CC50 at 20 h?
1. COc1ccc2c(C)nc(N/C(N)=N/C(C)=O)nc2c1
2. CCN(CC)Cn1nc2c3c(cccc3c1=O)-c1ccccc1-2

**A:**
[90, 133]

For every item in the list below, what is its measured CC50 at 20 h?
1. CCN1CCCC1CNC(=O)c1cc2c(=O)n(C)c3ccccc3c2n1C (configuration not stated)
2. CN(C)Cc1ccc2ccc3cccc4ccc1c2c34
3. c1ccc2nc3c(nc2c1)c1ccccc1n3CCN1CCOCC1
4. COc1ccc(Nc2nc(N3CCN(C)CC3)nc3ccccc23)c(OC)c1
5. CN(C)CC(O)Cn1c2ccc(Cl)cc2c2cc(Cl)ccc21 (configuration not stated)

**A:**
1: 135; 2: 20; 3: 72; 4: 192; 5: 17

For every item in the list below, what is its measured CC50 at 20 h?
1. COC(=O)c1c(NC(=O)c2ccc(OC)cc2)sc2c1CCN(C(C)C)C2
2. CN1CCN(c2cc(-c3ccc(F)cc3)nc(-c3ccccc3)n2)CC1

**A:**
[87, 23]

* * *

Tested on: Vaccinia virus
Test Summary: Inhibition of Vaccinia virus DNA synthesis in by rapid plate assay
Format: functional, organism-based
Measurement Conditions: Orthopoxvirus vaccinia
Please provide measured IC50 for the entries that follow.
Give bare numbers, in µM.

Here are 5 compounds together with their reported answers.
1. S=c1nc(-c2ccco2)c2c(=S)[nH]c(=S)[nH]c2[nH]1 : 142
2. CC1=NN(c2cccc(C(=O)O)c2)C(=O)/C1=C\c1ccc(-c2cccc(Cl)c2C)o1 : 14
3. COc1ccc(Nc2cc(C(F)(F)F)ccc2Cl)c(C(=O)O)c1 : 29
4. CN(C)CCc1cc2c(c3c1ccc1ccccc13)OCO2 : 5.4
5. O=C(NCCCN1CCCC1)c1cc2c(Cl)nc3ccccc3c2s1 : 10

For every item in the list below, what is its measured IC50?
1. CC(C)Nc1ccc(Nc2ccnc3cc4ccccc4cc23)cc1
2. BrCc1ccc(-c2noc(-c3ccncc3)n2)cc1

**A:**
[4.1, 1.3]

* * *

System: Vaccinia virus
Test Summary: Inhibition of Vaccinia virus DNA synthesis in by rapid plate assay
Assay type: functional, organism-based
Measurement Conditions: Orthopoxvirus vaccinia
Please provide measured log10 IC50 for the entries that follow.
Kindly note that the scale is log10 and the underlying IC50 is in µM.

Here are 3 molecules together with their reported answers.
1) Cc1ccc2nc(Cl)c3cc(C(=O)N(CCN(C)C)Cc4ccco4)sc3c2c1 : 1.00
2) CC1CCN(CCCNC(=O)c2cc3c(=O)n(C)c4ccccc4c3s2)CC1 : 1.28
3) O=C(O)c1ccc2c(c1)NC(=O)C(CSCc1ccccc1Cl)N2 (stereo not given) : 2.65

For every item in the list below, what is its measured log10 IC50?
1. CCN1CCN(CCCNC(=O)c2ccc3c(c2)NC(=O)/C(=C\C(=O)c2ccc(OC)cc2)N3)CC1
2. CN(C)c1ccc(-c2cccc(-c3ccc(N(C)C)cc3)[o+]2)cc1
3. CCN1CCCC1CNC(=O)c1ccc2c(c1)sc1nc(-c3cccc(OC)c3)cn12 (stereo not given)
4. Cc1c(C)n(CCN(C)C)c2ccc(C(=O)OCCN(C)C)cc12 [AMINDOCATE]
5. CC1CCCC(C)N1CCNc1nc2ccccc2c2nc(-c3ccccc3)nn12 (stereo not given)
6. N#CC1=C(SCc2ccccc2)SC(c2ccccc2O)NC1=O (stereo not given)

**A:**
[1.56, 0.48, 1.67, 1.41, 0.86, 2.40]

**Q:** Find the recorded log10 IC50 belonging to CN(C)CC(O)Cn1c2ccc(Cl)cc2c2cc(Cl)ccc21 (stereo not given) and report it.
**A:** 1.08

* * *

Test Summary: Cytotoxicity against african green monkey BSC1 cells after 120 hrs WST-1 based assay
Type: cell-based, BSC-1
Measurement Conditions: chlorocebus aethiops, read-out: TC50
Please provide measured CC50 at 120 h for the entries that follow.
Give bare numbers, in µM.

Here are 5 molecules together with their reported answers.
1. COC(=O)c1cccc2c1-c1ccccc1/C2=N\O : 20
2. N=C1/C(=C/c2coc3ccccc3c2=O)C(=O)N=C2SC=NN12 : 50
3. COc1ccc(-c2cc3ccccn3c2C(=O)c2cccnc2)c(OC)c1 : 60
4. N=C1S/C(=C/c2ccco2)C(=O)N1c1nccs1 : 50
5. Cc1c(/N=C/c2cc(Br)cc(Br)c2O)cccc1C(=O)O : 20

Let us move to another entry and its CC50 at 120 h.
**Q:** Find the recorded CC50 at 120 h belonging to CCNc1nc(SCc2ccc(Cl)cc2)nc2sc3c(c12)CCN(C)C3 and report it.
**A:** 5

* * *

Please provide measured CC50 at 20 h for the entries that follow.
Test Summary: Cytotoxicity against african green monkey BSC1 cells after 20 hrs WST-1 based assay
Format: cell-based, BSC-1
Measurement Conditions: chlorocebus aethiops, read-out: TC50

Here are 5 compounds together with their reported answers.
1) CCN1/C(=C/c2ccc3ccccc3[n+]2CC)Sc2cc(NC(C)=O)ccc21 : > 200 µM
2) COc1ccc(-c2cc3ccccn3c2C(=O)c2cccnc2)c(OC)c1 : > 200 µM
3) CCNc1nc(SCc2ccc(Cl)cc2)nc2sc3c(c12)CCN(C)C3 : 115 µM
4) Cc1cc(OC(=O)c2ccco2)nc(SCc2c(Cl)cccc2Cl)n1 : > 100 µM
5) N#CC1=C(SCc2ccccc2)SC(c2ccccc2O)NC1=O (stereo unspecified) : > 200 µM

**Q:** Find the recorded CC50 at 20 h belonging to CCN1CCCC1CNC(=O)c1ccc2c(c1)sc1nc(-c3cccc(OC)c3)cn12 (stereo unspecified) and report it.
**A:** 75 µM
